Target: 14-3-3γ (Homo sapiens, UniProt P61981)
Construct: made in house; host or cells: E. coli NiCo21 (DE3)
Sequence (P61981 whole entry): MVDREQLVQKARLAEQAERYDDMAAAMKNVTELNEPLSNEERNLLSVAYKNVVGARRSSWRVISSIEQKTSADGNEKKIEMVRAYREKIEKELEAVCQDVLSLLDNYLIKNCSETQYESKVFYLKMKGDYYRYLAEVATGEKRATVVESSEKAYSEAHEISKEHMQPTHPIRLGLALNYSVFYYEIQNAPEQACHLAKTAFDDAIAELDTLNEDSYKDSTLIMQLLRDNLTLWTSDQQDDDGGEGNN
Test: Isothermal titration calorimetry (ITC) of 14-3-3 binding to peptide
Details: Table S6; ITC, 25 °C; average of two runs
Where a SMILES comes first, the peptide text is derived from it. [ ]: non-standard residue; d: D form. ξ: configuration not given here. Phe(4-NO2) = N[C@@H](Cc1ccc([N+](=O)[O-])cc1)C(=O)O; ξAla(4-thiazolyl) = NC(Cc1cscn1)C(=O)O; pS = N[C@@H](COP(=O)(O)O)C(=O)O; β3hS = N[C@@H](CO)CC(=O)O; Nva = CCC[C@H](N)C(=O)O; ξβ3hS = NC(CO)CC(=O)O; βAla = NCCC(=O)O
Measured -TΔS accompanies every entry in the list below.

{"compound": "CCC[C@H](NC(=O)[C@H](N)CCCCN)C(=O)N[C@@H](Cc1ccc([N+](=O)[O-])cc1)C(=O)NC(Cc1cscn1)C(=O)N[C@@H](COP(=O)(O)O)C(=O)N[C@@H](C)C(=O)N[C@@H](CO)CC(=O)NCCC(=O)N[C@@H](Cc1ccc([N+](=O)[O-])cc1)C(=O)N[C@@H](CCCCN)C(N)=O (stereo partly drawn) [4c] (H-[dK][Nva][Phe(4-NO2)][ξAla(4-thiazolyl)][pS]A[β3hS][βAla][Phe(4-NO2)]K-NH2; N-terminus and C-terminus assumed)", "test system": "14-3-3γ (Homo sapiens, UniProt P61981)", "-TΔS": "-3,54 kcal mol^-1"}
{"compound": "CCC[C@H](NC(=O)[C@H](N)CCCCN)C(=O)N[C@@H](Cc1ccc([N+](=O)[O-])cc1)C(=O)NC(Cc1cscn1)C(=O)N[C@@H](COP(=O)(O)O)C(=O)N[C@@H](Cc1ccc([N+](=O)[O-])cc1)C(=O)NC(CO)CC(=O)NCCC(=O)N[C@@H](Cc1ccc([N+](=O)[O-])cc1)C(=O)N[C@@H](CCCCN)C(N)=O (stereo partly drawn) [compound 1] (H-[dK][Nva][Phe(4-NO2)][ξAla(4-thiazolyl)][pS][Phe(4-NO2)][ξβ3hS][βAla][Phe(4-NO2)]K-NH2)", "test system": "14-3-3γ (Homo sapiens, UniProt P61981)", "-TΔS": "0,68 kcal mol^-1"}

Consider the record given below.
// query Give the measured -TΔS of CCC[C@H](NC(=O)[C@H](N)CCCCN)C(=O)N[C@@H](Cc1ccc([N+](=O)[O-])cc1)C(=O)NC(Cc1cscn1)C(=O)N[C@@H](COP(=O)(O)O)C(=O)N[C@@H](Cc1ccc([N+](=O)[O-])cc1)C(=O)N[C@@H](CO)CC(=O)NCCC(=O)N[C@@H](C)C(=O)N[C@@H](CCCCN)C(N)=O (stereo partly drawn) [5c] (H-[dK][Nva][Phe(4-NO2)][ξAla(4-thiazolyl)][pS][Phe(4-NO2)][β3hS][βAla]AK-NH2; N-terminus and C-terminus assumed) .
// result -4,49 kcal mol^-1

Cited source: paper PMC9667936
